The measurements presented in this section are drawn from ChEMBL document CHEMBL3120093.

assay: Clearance in rat at 2 mg/kg, iv after 4 hrs
Type: ADME, organism-based
Set-up: dose 2 mg/kg, route intravenous
conditionSummary: in vivo
observedProperty: clearance

# example entries with known answers
smilesData	clearance
O=C([C@@H](c1ccccc1)N1CCCCC1)N1CCC[C@H]1c1ncc(-c2ccc(-c3ccc(-c4cnc([C@@H]5CCCN5C(=O)[C@@H](c5ccccc5)N5CCCCC5)[nH]4)cc3)cc2)[nH]1	58 mL/min/kg
CCN(CC)[C@@H](C(=O)N1CCC[C@H]1c1ncc(-c2ccc(-c3ccc(-c4cnc([C@@H]5CCCN5C(=O)[C@@H](c5ccccc5)N(CC)CC)[nH]4)cc3)cc2)[nH]1)c1ccccc1	4 mL/min/kg

Now for another entry.
Please fill in: clearance reported for CCN(C)[C@@H](C(=O)N1CCC[C@H]1c1ncc(-c2ccc(-c3ccc(-c4cnc([C@@H]5CCCN5C(=O)[C@@H](c5ccccc5)N(C)CC)[nH]4)cc3)cc2)[nH]1)c1ccccc1 = 88 mL/min/kg
